- ASSAY TARGET: NaV1.3 (Homo sapiens)
- Sequence (Q9NY46 whole entry): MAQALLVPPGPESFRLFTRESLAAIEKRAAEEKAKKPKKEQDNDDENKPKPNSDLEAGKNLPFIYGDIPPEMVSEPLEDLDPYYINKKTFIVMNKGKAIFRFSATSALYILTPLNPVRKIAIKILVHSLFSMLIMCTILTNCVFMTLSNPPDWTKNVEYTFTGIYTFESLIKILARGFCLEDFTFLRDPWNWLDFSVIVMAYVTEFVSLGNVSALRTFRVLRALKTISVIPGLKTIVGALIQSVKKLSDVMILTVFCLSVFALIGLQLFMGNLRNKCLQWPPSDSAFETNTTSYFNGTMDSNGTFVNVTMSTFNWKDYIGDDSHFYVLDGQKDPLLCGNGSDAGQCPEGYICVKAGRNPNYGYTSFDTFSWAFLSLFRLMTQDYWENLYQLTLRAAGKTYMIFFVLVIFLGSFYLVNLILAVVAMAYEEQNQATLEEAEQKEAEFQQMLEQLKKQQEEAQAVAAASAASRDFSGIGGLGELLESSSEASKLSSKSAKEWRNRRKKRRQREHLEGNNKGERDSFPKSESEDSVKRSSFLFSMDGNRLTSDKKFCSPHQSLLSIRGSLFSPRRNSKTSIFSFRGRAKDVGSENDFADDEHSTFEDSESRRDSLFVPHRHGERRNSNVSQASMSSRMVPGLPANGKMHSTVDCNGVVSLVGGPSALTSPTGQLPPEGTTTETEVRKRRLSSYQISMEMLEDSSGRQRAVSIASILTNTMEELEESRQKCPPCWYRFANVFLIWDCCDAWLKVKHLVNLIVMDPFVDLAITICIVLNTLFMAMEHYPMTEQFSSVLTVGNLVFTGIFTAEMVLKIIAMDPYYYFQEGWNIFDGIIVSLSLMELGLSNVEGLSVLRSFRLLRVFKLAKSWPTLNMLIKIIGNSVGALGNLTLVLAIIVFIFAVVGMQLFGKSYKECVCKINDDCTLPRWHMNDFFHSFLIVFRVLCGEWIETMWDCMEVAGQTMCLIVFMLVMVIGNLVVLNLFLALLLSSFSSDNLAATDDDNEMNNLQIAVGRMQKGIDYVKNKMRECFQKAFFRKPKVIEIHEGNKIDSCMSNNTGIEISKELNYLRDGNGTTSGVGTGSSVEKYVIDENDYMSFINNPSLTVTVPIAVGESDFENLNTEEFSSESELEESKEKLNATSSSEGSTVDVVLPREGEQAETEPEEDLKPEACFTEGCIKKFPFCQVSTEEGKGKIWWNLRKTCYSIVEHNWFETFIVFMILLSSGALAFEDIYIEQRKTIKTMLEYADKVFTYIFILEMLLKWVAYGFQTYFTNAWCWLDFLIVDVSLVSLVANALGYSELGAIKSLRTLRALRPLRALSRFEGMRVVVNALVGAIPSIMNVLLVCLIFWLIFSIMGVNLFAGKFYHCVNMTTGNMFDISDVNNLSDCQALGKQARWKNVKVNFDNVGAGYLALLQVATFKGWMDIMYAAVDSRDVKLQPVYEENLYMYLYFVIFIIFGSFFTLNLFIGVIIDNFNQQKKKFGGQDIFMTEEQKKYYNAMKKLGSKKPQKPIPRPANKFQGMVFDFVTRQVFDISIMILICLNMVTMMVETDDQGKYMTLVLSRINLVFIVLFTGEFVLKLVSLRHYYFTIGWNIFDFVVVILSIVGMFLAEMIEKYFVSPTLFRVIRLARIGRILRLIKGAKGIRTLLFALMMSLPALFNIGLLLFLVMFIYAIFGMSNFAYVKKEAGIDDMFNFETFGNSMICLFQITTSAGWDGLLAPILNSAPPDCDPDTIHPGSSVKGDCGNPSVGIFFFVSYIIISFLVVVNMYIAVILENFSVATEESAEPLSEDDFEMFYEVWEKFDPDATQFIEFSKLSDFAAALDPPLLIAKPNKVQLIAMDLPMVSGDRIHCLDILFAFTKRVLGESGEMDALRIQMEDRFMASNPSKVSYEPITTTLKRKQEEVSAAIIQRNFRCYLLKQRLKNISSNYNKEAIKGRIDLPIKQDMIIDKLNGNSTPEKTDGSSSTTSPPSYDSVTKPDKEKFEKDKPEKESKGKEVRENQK
- METHOD NOTES: Activity against NaV 1.3 channel (optical membrane potential assay, electrical stimulation)
- Assay type: cell-based
- Design: expressed in transfected cells; host or cells: HEK293
- TEST PARAMETERS: NaV 1.3 channel; read-out: IC50
READOUT KIND: IC50

Recorded IC50, per entry:
compound="O=C(COc1ccccc1)NC1Cc2ccc(S(=O)(=O)Nc3nccs3)cc2C1 (centres unmarked) [Compound 9]" readout_kind=IC50 result="> 5 µM"
compound="O=C(COc1cccc(Cl)c1)NC1Cc2ccc(S(=O)(=O)Nc3nccs3)cc2C1 (centres unmarked) [Compound 16]" readout_kind=IC50 result="< 2 µM"
compound="O=C(NC1Cc2ccc(S(=O)(=O)Nc3nccs3)cc2C1)c1ccc(F)cc1 (centres unmarked) [Compound 6]" readout_kind=IC50 result="> 5 µM"
compound="O=C(COc1ccc(F)cc1)NC1Cc2ccc(S(=O)(=O)Nc3nccs3)cc2C1 (centres unmarked) [Compound 13]" readout_kind=IC50 result="2 to 5 µM"
compound="CC(C(=O)NC1Cc2ccc(S(=O)(=O)Nc3nccs3)cc2C1)n1ccc2ccccc21 (centres unmarked) [Compound 17]" readout_kind=IC50 result="2 to 5 µM"

(Q) Which IC50 value is on record for O=C(NC1Cc2ccc(S(=O)(=O)Nc3nccs3)cc2C1)c1c(F)cc(F)cc1F (centres unmarked) [Compound 7] ?
(A) > 5 µM

(Q) Thanks! And O=C(CCOc1ccccc1)NC1Cc2ccc(S(=O)(=O)Nc3nccs3)cc2C1 (centres unmarked) [Compound 15] ?
(A) > 5 µM

(Q) What do we get for O=C(COc1ccc(F)c(Cl)c1)NC1Cc2ccc(S(=O)(=O)Nc3nccs3)cc2C1 (centres unmarked) [Compound 5] ?
(A) < 2 µM
